Consider the following sequences and their measured self-splicing fitness (ln) readings.
test: self-splicing fitness, log relative to wild type (ln ratio); higher = more splicing; Tetrahymena group I intron in knt gene, E. coli kanamycin selection, DiMSum; sequences stand for … in CUCUCU…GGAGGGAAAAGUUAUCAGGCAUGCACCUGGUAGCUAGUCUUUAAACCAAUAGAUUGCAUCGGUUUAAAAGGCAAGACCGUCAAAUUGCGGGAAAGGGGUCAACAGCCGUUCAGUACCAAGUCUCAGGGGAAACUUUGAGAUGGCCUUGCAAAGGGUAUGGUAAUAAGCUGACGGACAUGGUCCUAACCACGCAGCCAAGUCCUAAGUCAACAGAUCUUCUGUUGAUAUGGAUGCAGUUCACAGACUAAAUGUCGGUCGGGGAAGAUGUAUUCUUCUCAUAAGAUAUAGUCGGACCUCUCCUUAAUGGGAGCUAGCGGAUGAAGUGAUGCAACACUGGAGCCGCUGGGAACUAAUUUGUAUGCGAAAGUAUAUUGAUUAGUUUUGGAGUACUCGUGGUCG; conditions: 30 °C;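 note: selection with 25 µg/mL kanamycin versus none on LB agar overnight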
Lab note: jot the number down without any unit.

Worked cases, answers included:
Chain | self-splicing fitness (ln)
CACAAGCAAUAUUACGCAUG | -3.79
UAGCAGCAAUAUUACGAAUA | -0.737

# context switch: different sequence, same self-splicing fitness (ln)
*Q* Quick check: self-splicing fitness (ln) of UAACAGCAAUAUUACGUUAA ?
*A* -3.25

* * *

assay: self-splicing fitness, log relative to wild type (ln ratio); higher = more splicing; Tetrahymena group I intron in knt gene, E. coli kanamycin selection, DiMSum; sequences stand for … in CUCUCU…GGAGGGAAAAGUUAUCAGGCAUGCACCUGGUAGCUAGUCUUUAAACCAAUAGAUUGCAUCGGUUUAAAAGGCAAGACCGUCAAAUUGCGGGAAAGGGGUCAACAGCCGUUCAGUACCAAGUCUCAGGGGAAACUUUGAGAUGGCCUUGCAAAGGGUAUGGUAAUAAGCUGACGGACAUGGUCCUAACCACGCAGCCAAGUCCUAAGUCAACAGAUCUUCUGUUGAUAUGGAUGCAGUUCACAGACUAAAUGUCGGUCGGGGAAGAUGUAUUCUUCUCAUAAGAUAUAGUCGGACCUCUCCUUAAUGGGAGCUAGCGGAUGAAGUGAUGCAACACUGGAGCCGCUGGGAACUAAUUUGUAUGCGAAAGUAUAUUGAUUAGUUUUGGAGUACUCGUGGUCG; settings: 30 °C
Tick MET if self-splicing fitness (ln) is -0.9 or greater. Tick NOT MET if self-splicing fitness (ln) is less than -0.9.

Record excerpt, results attached:
Chain | Assigned Label
GCACAGCAAUAUUACGAGUC | NOT MET
CUAGAGCAAUAUUACGUCAC | NOT MET
GAAAAGCAAUAUUACGUGAU | NOT MET
GACAAGCAAUAUUACGGUUA | MET
UCCUAGCAAUAUUACGUAAG | NOT MET

*Q* Please check the record CAGAAGCAAUAUUACGAAAA and state if its self-splicing fitness (ln) is at or above -0.9.
*A* NOT MET

*Q* Now the same for UCAUAGCAAUAUUACGCUCG
*A* MET

*Q* Now the same for GGUAAGCAAUAUUACGCGGA
*A* MET

*Q* Now the same for GUUGAGCAAUAUUACGUCCU
*A* NOT MET
